Provenance of the data: patent US20130101615A1

system: MAP 303 (ruminant with Johne's disease); test: Radiometric BACTEC growth inhibition, MAP 303; type: cell-based, Mycobacterium avium subspecies paratuberculosis; conditions: 16 μg/ml; Bovine MAP 303; vs 3.2% DMSO control
Measured % ΔcGI, listed per entry.

compound: C=CC[C@@H]1/C=C(\C)C[C@H](C)C[C@H](OC)[C@H]2O[C@@](O)(C(=O)C(=O)N3CCCC[C@H]3C(=O)O[C@H](/C(C)=C/[C@@H]3CC[C@@H](O)[C@H](OC)C3)[C@H](C)[C@@H](O)CC1=O)[C@H](C)C[C@@H]2OC
% ΔcGI, %: −5

compound: CC[C@@]1([C@@H]2O[C@@H]([C@H]3O[C@@](O)(CO)[C@H](C)C[C@@H]3C)C[C@@H]2C)CC[C@H]([C@]2(C)CC[C@]3(C[C@H](O)[C@@H](C)[C@@H]([C@@H](C)[C@@H](OC)[C@H](C)C(=O)O)O3)O2)O1
% ΔcGI, %: −94

compound: C[C@@H]1C[C@@H]([C@H](O)CC2CC(=O)NC(=O)C2)C(=O)[C@@H](C)C1 [Cycloheximide, cycloheximide]
% ΔcGI, %: −5

compound: CC(C)/N=c1\cc2n(-c3ccc(Cl)cc3)c3ccccc3nc-2cc1Nc1ccc(Cl)cc1
% ΔcGI, %: −99

compound: CO[C@H]1C[C@@H]2CC[C@@H](C)[C@@](O)(O2)C(=O)C(=O)N2CCCC[C@H]2C(=O)O[C@H]([C@H](C)C[C@@H]2CC[C@@H](O)[C@H](OC)C2)CC(=O)[C@H](C)/C=C(\C)[C@@H](O)[C@@H](OC)C(=O)[C@H](C)C[C@H](C)/C=C/C=C/C=C/1C [Rapamycin, sirolimus (rapamycin)]
% ΔcGI, %: −15

compound: O=C1NC(=O)c2ccccc21 [Phthalimide, phthalimide]
% ΔcGI, %: −13

====

test system: M. avium ATCC 25291; assay type: cell-based, M. avium subspecies avium; conditions: 16 μg/ml; M. avium 25291; vs 3.2% DMSO control
Measured % ΔcGI accompanies every entry in the list below.
readout kind: % ΔcGI (%)

compound: CC(C)/N=c1\cc2n(-c3ccc(Cl)cc3)c3ccccc3nc-2cc1Nc1ccc(Cl)cc1 [Clofazimine, clofazimine]
meas value: −98

compound: O=C1NC(=O)c2ccccc21 [Phthalimide, phthalimide]
meas value: 1

compound: CO[C@H]1C[C@@H]2CC[C@@H](C)[C@@](O)(O2)C(=O)C(=O)N2CCCC[C@H]2C(=O)O[C@H]([C@H](C)C[C@@H]2CC[C@@H](O)[C@H](OC)C2)CC(=O)[C@H](C)/C=C(\C)[C@@H](O)[C@@H](OC)C(=O)[C@H](C)C[C@H](C)/C=C/C=C/C=C/1C [Rapamycin, sirolimus (rapamycin)]
meas value: 11

compound: C=CC[C@@H]1/C=C(\C)C[C@H](C)C[C@H](OC)[C@H]2O[C@@](O)(C(=O)C(=O)N3CCCC[C@H]3C(=O)O[C@H](/C(C)=C/[C@@H]3CC[C@@H](O)[C@H](OC)C3)[C@H](C)[C@@H](O)CC1=O)[C@H](C)C[C@@H]2OC [Tacrolimus, tacrolimus (FK506)]
meas value: 11

compound: CC[C@@]1([C@@H]2O[C@@H]([C@H]3O[C@@](O)(CO)[C@H](C)C[C@@H]3C)C[C@@H]2C)CC[C@H]([C@]2(C)CC[C@]3(C[C@H](O)[C@@H](C)[C@@H]([C@@H](C)[C@@H](OC)[C@H](C)C(=O)O)O3)O2)O1 [Monensin, monensin]
meas value: −69

compound: C[C@@H]1C[C@@H]([C@H](O)CC2CC(=O)NC(=O)C2)C(=O)[C@@H](C)C1 [Cycloheximide, cycloheximide]
meas value: −7
